# Experimental system: NIH3T3 cells expressing the full length KDR receptor (Homo sapiens)
# Construct: NIH3T3 cells expressing the full length KDR receptor
# Sequence (P35968 20-1356): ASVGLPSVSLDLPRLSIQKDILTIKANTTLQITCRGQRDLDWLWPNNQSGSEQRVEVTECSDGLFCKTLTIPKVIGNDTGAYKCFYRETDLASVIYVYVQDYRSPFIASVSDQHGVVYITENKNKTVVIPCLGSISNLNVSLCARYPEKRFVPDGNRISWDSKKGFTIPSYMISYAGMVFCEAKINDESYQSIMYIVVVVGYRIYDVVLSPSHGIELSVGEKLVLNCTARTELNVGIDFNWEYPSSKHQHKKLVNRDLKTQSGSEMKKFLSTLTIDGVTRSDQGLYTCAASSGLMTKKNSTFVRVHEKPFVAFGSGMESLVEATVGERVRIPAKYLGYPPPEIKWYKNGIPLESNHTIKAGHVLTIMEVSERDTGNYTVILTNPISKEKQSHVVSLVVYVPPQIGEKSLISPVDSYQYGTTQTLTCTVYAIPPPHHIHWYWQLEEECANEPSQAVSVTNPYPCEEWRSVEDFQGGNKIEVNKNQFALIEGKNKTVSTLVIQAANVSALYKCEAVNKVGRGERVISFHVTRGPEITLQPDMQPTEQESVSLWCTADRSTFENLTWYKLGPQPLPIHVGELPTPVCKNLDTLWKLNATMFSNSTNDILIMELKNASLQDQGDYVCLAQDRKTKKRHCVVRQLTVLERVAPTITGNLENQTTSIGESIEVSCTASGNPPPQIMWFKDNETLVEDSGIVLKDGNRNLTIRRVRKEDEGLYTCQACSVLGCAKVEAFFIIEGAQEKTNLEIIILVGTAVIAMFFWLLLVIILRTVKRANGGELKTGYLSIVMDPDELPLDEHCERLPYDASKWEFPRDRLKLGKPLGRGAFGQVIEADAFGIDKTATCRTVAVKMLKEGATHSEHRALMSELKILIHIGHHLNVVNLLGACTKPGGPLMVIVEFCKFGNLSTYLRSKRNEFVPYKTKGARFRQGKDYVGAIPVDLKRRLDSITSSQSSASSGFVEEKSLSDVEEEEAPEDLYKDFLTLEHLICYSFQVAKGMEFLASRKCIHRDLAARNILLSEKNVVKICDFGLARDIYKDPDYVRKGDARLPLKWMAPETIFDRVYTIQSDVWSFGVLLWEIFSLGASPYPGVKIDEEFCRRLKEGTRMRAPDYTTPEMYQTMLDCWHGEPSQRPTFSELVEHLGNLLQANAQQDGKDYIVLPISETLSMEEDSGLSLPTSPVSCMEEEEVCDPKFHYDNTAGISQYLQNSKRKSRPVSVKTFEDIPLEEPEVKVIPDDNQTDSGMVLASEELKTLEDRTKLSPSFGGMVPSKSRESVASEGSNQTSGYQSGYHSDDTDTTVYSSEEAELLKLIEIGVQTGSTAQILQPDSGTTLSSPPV
# Assay method text: Cell mechanistic assay - Inhibition of 3T3 KDR phosphorylation
# Settings: VEGF (30 ng / ml) for 10 minutes after 30 minutes with compound; KDR phosphotyrosine ELISA
Structures can show the parent of a compound that is named as a salt.
Property measured: IC50

# Compound, IC50
rows = [
    ("NC(=O)c1cc(Cc2nnc(Nc3cccc(Br)c3)c3ccccc23)ccn1", "< 20 nM"),
]

Q: Which IC50 value is on record for CNC(=O)c1cc(COc2nnc(Nc3ccc(Cl)cc3)c3ccccc23)ccn1 ?
A: 20 to 50 nM

Q: Now consider CNC(=O)c1cc(Cc2nnc(Nc3cccc(Br)c3)c3ccccc23)ccn1 and answer again.
A: < 20 nM

Q: Continue with c1ccc2c(Nc3ccc(Oc4ccncc4)cc3)nnc(Cc3ccncc3)c2c1
A: > 50 nM

Q: Queued: NC(=O)c1cc(COc2nnc(Nc3ccc(Cl)cc3)c3ccccc23)ccn1 [Example 5]
A: 20 to 50 nM

Q: How about this compound: CNC(=O)c1cc(Cc2nnc(Nc3ccc(Cl)cc3)c3ccccc23)ccn1 [Example 11, dihydrochloride]
A: < 20 nM

Q: And for NC(=O)c1cc(COc2nnc(Nc3ccc(Cl)cc3)c3ccccc23)ccn1 [Example 15, dihydrochloride] ?
A: < 20 nM

Q: Ok, now c1ccc2c(Nc3ccc4c(c3)CCC4)nnc(Cc3ccncc3)c2c1
A: 20 to 50 nM
